Molecular target: T1, monomeric human TNFR2 extracellular domain (human, UniProt P20333 23-257)
T1 construct: extracellular domain; Analyte in the Octet experiments; also called human TNFR2 ECD
T1 sequence (looked up): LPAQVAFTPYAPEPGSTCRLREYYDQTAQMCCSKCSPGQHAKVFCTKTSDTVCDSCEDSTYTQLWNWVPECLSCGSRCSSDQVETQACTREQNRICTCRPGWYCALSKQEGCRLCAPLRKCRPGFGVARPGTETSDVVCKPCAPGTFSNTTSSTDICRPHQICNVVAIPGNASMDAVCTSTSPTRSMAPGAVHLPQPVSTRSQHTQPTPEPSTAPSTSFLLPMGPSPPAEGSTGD
Assay: BLI (Octet Red 96), antibody captured on Fc biosensor, monomeric TNFR2 ECD in solution, 1:1 model
Below is a list of entries, each paired with its recorded Kd value.
API: value field is a number in nM; no unit string.

Example entries and their recorded answers appear below.
{"columns": ["binder", "result"],
 "data": [
  ["chimeric SBT-002 (antibody, V domains shown, also called chSBT-002) VH: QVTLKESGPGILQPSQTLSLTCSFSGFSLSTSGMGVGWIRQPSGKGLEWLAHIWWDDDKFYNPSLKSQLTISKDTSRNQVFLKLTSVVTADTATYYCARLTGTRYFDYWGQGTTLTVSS VL: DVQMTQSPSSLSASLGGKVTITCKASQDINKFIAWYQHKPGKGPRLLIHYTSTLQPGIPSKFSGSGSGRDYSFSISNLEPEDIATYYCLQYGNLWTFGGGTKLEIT", 0.8],
  ["SBT-003 (antibody, V domains shown, Parental mouse antibody; also called mouse SBT-003) VH: QIQLVQSGPELKKPGETVKISCKASGYTFTDYSMHWVKQAPGKGLKWMGWINTETGEPTYADDFKGRFAFSSETSTSTAYLQINNLKNDDTTTYFCATYYGSSYVPDYWGQGTSLTVSS VL: DIVMTQSHKFMSTSVGDRVSITCKASQNVGTAVAWYQHKPGQSPKLLIYWTSSRHTGVPDRFTGSGSGTEFTLTISNVQSEDLADYFCHQYSDYPYTFGGGTKLEIK", 1.2]
]}

**Query** Param item = SBT-004 (antibody, V domains shown, Parental rat antibody; also called rat SBT-004) VH: EVQLQQSGPEVGRPGSSVKISCKASGYTFTDYIMHWVKQSPGQGLEWIGWVDPEYGSTDYAEKFKKKATLTADTSSNTAYIQLSSLTSEDTATYFCARDDGSYSPFDYWGQGVMVTVSS VL: DIQMTQSPPSLSASLGDKVTITCQASQNINKYIAWYQQKPGKAPRLLIRYTSTLESGTPSRFSGSGSGRDYSFSISNVESEDIASYYCLQYVNLLTFGAGTKLEIK ; retrieve measured Kd.
**Result** 1.8
